Reference for the values: patent US6204282A

Target desc: αllbβ3 receptor (Homo sapiens, UniProt P05106+P08514)
Sequence (P08514 32-1039): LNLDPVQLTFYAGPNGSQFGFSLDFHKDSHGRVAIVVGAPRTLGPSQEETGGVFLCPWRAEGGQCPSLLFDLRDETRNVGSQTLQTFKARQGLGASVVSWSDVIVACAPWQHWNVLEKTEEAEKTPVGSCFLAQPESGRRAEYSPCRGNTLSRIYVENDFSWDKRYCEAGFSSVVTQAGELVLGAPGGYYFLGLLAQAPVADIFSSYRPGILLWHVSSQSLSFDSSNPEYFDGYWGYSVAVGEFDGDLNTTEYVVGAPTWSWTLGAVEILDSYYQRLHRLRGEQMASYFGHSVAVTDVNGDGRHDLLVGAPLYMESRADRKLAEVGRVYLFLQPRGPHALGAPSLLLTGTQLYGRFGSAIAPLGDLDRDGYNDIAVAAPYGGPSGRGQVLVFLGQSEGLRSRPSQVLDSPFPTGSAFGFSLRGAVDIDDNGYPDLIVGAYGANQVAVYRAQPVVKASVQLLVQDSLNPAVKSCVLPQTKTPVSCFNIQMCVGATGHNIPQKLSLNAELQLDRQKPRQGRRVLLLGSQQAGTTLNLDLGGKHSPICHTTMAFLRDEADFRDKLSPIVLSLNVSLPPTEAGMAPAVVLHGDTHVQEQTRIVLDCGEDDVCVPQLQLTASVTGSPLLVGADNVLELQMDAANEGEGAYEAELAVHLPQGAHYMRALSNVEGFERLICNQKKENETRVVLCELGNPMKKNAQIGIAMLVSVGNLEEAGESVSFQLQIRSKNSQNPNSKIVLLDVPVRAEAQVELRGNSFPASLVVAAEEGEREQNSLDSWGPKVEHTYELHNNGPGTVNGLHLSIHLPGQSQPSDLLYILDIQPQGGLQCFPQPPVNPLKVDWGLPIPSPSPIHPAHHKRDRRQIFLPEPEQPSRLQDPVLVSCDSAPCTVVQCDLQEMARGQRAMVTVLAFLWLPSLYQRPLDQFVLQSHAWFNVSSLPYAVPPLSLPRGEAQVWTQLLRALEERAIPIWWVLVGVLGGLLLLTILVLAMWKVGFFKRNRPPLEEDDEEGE
Sequence (P05106 27-788): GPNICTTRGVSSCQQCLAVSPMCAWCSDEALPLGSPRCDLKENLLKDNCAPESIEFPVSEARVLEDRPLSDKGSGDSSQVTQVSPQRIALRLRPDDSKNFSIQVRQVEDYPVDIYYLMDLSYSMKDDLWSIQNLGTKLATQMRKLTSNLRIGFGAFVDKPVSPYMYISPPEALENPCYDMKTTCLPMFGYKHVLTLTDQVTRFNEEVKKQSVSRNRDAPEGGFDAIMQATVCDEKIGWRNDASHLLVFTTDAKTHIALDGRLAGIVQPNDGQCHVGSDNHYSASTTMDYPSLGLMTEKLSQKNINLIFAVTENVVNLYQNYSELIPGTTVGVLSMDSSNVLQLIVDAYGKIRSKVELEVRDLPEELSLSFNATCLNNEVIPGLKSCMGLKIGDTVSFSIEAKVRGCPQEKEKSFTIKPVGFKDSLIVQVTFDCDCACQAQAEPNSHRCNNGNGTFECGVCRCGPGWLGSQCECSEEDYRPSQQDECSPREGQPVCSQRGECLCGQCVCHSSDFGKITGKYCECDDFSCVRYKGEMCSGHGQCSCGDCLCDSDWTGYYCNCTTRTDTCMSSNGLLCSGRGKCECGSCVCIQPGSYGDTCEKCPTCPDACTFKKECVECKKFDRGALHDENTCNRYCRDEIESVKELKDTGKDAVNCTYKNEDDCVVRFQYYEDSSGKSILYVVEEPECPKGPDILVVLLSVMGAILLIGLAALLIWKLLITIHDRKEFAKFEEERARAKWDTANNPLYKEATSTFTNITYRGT
Protocol notes: similar competitive assay with purified αllbβ3 receptor and 125I-echistatin (specificity index versus αvβ3)
Assay type: binding
Test settings: IC50 αllbβ3 / IC50 αvβ3
Excerpt: The specificity index, which is a measure of the relative binding affinity for αvβ3 versus αllbβ3, may be determined by dividing the IC50 value for αllbβ3by the IC50 value for αvβ3.
The label depends only on SPECIFICITY αIIb β3/αvβ3 (specificity index): 1 (yes) if it is at least 100, 0 (no) if it is smaller.

Record excerpt, results attached:
* O=C(NC(CNC(=O)c1ccc(CNCCc2nc3ccccc3[nH]2)cc1)C(=O)O)OCc1ccccc1 (stereo not drawn) [Example 5-70] | 0 (no)
* O=C(N[C@@H](CNC(=O)c1ccc(CN(Cc2nc3ccccc3[nH]2)C(=O)CCC2CCCC2)cc1)C(=O)O)OCc1ccccc1 [Example 5-14] | 1 (yes)
* CC(c1nc2ccccc2[nH]1)N(Cc1ccc(C(=O)NC[C@H](NC(=O)OCc2ccccc2)C(=O)O)cc1)C(=O)CCC1CCCC1 (stereo partly drawn) [Example 5-79] | 0 (no)
* CCOC(=O)CNC(=O)N(Cc1ccc(C(=O)NC[C@H](NC(=O)OCc2ccccc2)C(=O)O)cc1)Cc1nc2ccccc2[nH]1 [Example 5-45] | 1 (yes)
* O=C(N[C@@H](CNC(=O)c1ccc(CN(Cc2nc3ccccc3[nH]2)C(=O)C2CCCCC2)cc1)C(=O)O)OCc1ccccc1 [Example 5-15] | 0 (no)

I'd appreciate it if you could say whether O=C(O)CNC(=O)N(Cc1ccc(C(=O)NC[C@H](NC(=O)OCc2ccccc2)C(=O)O)cc1)Cc1nc2ccccc2[nH]1 [Example 5-96] has SPECIFICITY αIIb β3/αvβ3 (specificity index) at least equal to 100.
1 (yes)

====

Target desc: αllbβ3 receptor (Homo sapiens, UniProt P05106+P08514)
Protocol notes: similar competitive assay with purified αllbβ3 receptor and 125I-echistatin (specificity index versus αvβ3)
Format: binding
Test settings: IC50 αllbβ3 / IC50 αvβ3
Parameter measured: SPECIFICITY αIIb β3/αvβ3 (specificity index)

- COCCC(=O)N(Cc1ccc(C(=O)NC[C@H](NC(=O)OCc2ccccc2)C(=O)O)cc1)Cc1nc2ccccc2[nH]1 [Example 5-25]: 52
- O=C(O)CC(NC(=O)c1ccc(CN(Cc2nc3ccccc3[nH]2)C(=O)CCC2CCCC2)cc1)c1ccccc1 (centres unmarked) [Example 5-69]: 0.4
- CC(C)(C)OC(=O)N[C@@H](CNC(=O)c1ccc(CNCc2nc3ccccc3[nH]2)cc1)C(=O)O [Example 5-60]: 90
- O=C(N[C@@H](CNC(=O)c1ccc(CN(Cc2nc3ccccc3[nH]2)C(=O)Nc2ccc(F)cc2)cc1)C(=O)O)OCc1ccccc1 [Example 5-49]: 504

From here, focus on the item given below.
Write down SPECIFICITY αIIb β3/αvβ3 (specificity index) measured for item COCC(=O)N(Cc1ccc(C(=O)NC[C@H](NS(=O)(=O)c2ccccc2)C(=O)O)cc1)Cc1nc2ccccc2[nH]1 [Example 5-80]
11

====

Target desc: αllbβ3 receptor (Homo sapiens, UniProt P05106+P08514)
Protocol notes: similar competitive assay with purified αllbβ3 receptor and 125I-echistatin (specificity index versus αvβ3)
Format: binding
Test settings: IC50 αllbβ3 / IC50 αvβ3
Label YES when SPECIFICITY αIIb β3/αvβ3 (specificity index) < 200; otherwise NO.

Worked examples follow.
• CCCCOC(=O)N[C@@H](CNC(=O)c1ccc(CN(Cc2nc3ccccc3[nH]2)C(=O)N[C@@H](CCSC)C(=O)OCC)cc1)C(=O)O [Example 5-87] = NO
• CCOCC(=O)N(Cc1ccc(C(=O)NC[C@H](NC(=O)OCc2ccccc2)C(=O)O)cc1)Cc1nc2ccccc2[nH]1 [Example 5-26] = YES
• CCOc1ccc(NC(=O)N(Cc2ccc(C(=O)NC[C@H](NC(=O)OCc3ccccc3)C(=O)O)cc2)Cc2nc3ccccc3[nH]2)cc1 [Example 5-32] = YES

Dear colleague, could you confirm whether SPECIFICITY αIIb β3/αvβ3 (specificity index) of CC(C)NC(=O)N(Cc1ccc(C(=O)NC[C@H](NC(=O)OCc2ccccc2)C(=O)O)cc1)Cc1nc2ccccc2[nH]1 [Example 5-30] falls below 200? Thanks.
NO

Given O=C(NC(CNC(=O)c1ccc(CN(CCc2nc3ccccc3[nH]2)C(=O)CCC2CCCC2)cc1)C(=O)O)OCc1ccccc1 (centres unmarked) [Example 5-74] , is recorded SPECIFICITY αIIb β3/αvβ3 (specificity index) strictly lower than 200?
YES

Record O=C(N[C@@H](CNC(=O)c1ccc(CN(Cc2nc3ccccc3[nH]2)C(=O)NCc2ccccc2)cc1)C(=O)O)OCc1ccccc1 [Example 5-29] : is its SPECIFICITY αIIb β3/αvβ3 (specificity index) strictly below 200?
YES

Lab note: confirm whether the reported SPECIFICITY αIIb β3/αvβ3 (specificity index) for this compound is below 200, equality not counting. compound: CCNC(=O)N(Cc1ccc(C(=O)NC[C@H](NC(=O)OCc2ccccc2)C(=O)O)cc1)Cc1nc2ccccc2[nH]1 [Example 5-43]
NO

Input CC(c1nc2ccccc2[nH]1)N(Cc1ccc(C(=O)NC[C@H](NC(=O)OCc2ccccc2)C(=O)O)cc1)C(=O)CCc1ccccc1 (some centres unmarked) [Example 5-78] ; condition: SPECIFICITY αIIb β3/αvβ3 (specificity index) strictly below 200. Does it hold?
YES

Decide: SPECIFICITY αIIb β3/αvβ3 (specificity index) of CCCCOC(=O)N[C@@H](CNC(=O)c1ccc(CN(Cc2nc3ccccc3[nH]2)C(=O)N[C@@H](C)C(=O)OCC)cc1)C(=O)O [Example 5-89] strictly below 200?
NO

Input CCCCOC(=O)N[C@@H](CNC(=O)c1ccc(CN(Cc2nc3ccccc3[nH]2)C(=O)NCC(=O)OCC)cc1)C(=O)O [Example 5-86] ; condition: SPECIFICITY αIIb β3/αvβ3 (specificity index) strictly below 200. Does it hold?
NO

Quick check: does CCCCOC(=O)N[C@@H](CNC(=O)c1ccc(CN(Cc2nc3ccccc3[nH]2)C(=O)NCC(=O)O)cc1)C(=O)O [Example 5-97] have SPECIFICITY αIIb β3/αvβ3 (specificity index) under 200?
NO
